- testDescription: Stability on storage (related substances and decomposition products)
- Format: physicochemical
- conditionNotes: t = 18 months (at 2-8° C.); unit assumed
quantityName: Related Substances (from process) P.A. C

Entry under review: C/C(=C\C(=O)OCCCCCCCCC(=O)[O-])C[C@@H]1OC[C@H](C[C@@H]2O[C@H]2[C@@H](C)[C@H](C)O)[C@@H](O)[C@H]1O.C/C(=C\C(=O)OCCCCCCCCC(=O)[O-])C[C@@H]1OC[C@H](C[C@@H]2O[C@H]2[C@@H](C)[C@H](C)O)[C@@H](O)[C@H]1O.[Ca+2] [amorphous calcium pseudomonate, calcium pseudomonate] . Reported Related Substances (from process) P.A. C?
0.08%
